Attribute: pEC50
Molecular target: T1, catalytic domain of MMP-14 (cdMMP-14) (human, UniProt P50281 114-287, limits assumed, biotinylated (Sulfo-NHS-LC-Biotin) where immobilised via streptavidin)
T1 construct: also called matrix metalloproteinase-14 catalytic domain; wild-type MMP-14
Test: ELISA, Fab titrated on immobilised biotin-cdMMP-14, anti-Fab-HRP
Please treat pEC50 as minus the base-10 logarithm of the molar concentration.

Here are 2 binders together with their reported answers.
Fab R2C11 (Fab, V domains shown) VH: EVQLVESGGGLVQPGGSLRLSCAASGFNLYYSSIHWVRQAPGKGLEWVAYIYPSYSYTYYADSVKGRFTISADTSKNTAYLQMNSLRAEDTAVYYCARRYGSDVFCVGCFFGVRLSYVMDYWGQGTLVTVSS VL: DIQMTQSPSSLSASVGDRVTITCRASQSVSSAVAWYQQKPGKAPKLLIYSASSLYSGVPSRFSGSRSGTDFTLTISSLQPEDFATYYCQQYVSSGSLITFGQGTKVEIKR: 6.12
Fab R2C8 (Fab, V domains shown) VH: EVQLVESGGGLVQPGGSLRLSCAASGFNISSSSIHWVRQAPGKGLEWVASIYPYYGSTSYADSVKGRFTISADTSKNTAYLQMNSLRAEDTAVYYCARPGRHLQTTFKGYQFKYSRYIYAMDYWGQGTLVTVSS VL: DIQMTQSPSSLSASVGDRVTITCRASQSVSSAVAWYQQKPGKAPKLLIYSASSLYSGVPSRFSGSRSGTDFTLTISSLQPEDFATYYCQQWGHHGYLITFGQGTKVEIKR: 5.92

Let us move to another entry and its pEC50.
Query: Please supply the value of reported pEC50 for the item Fab R2C6 (Fab, V domains shown) VH: EVQLVESGGGLVQPGGSLRLSCAASGFNIYYSSMHWVRQAPGKGLEWVAYISPYYGYTSYADSVKGRFTISADTSKNTAYLQMNSLRAEDTAVYYCARKDLLKTNRLTTRYKKSVSVGYGMDYWGQGTLVTVSS VL: DIQMTQSPSSLSASVGDRVTITCRASQSVSSAVAWYQQKPGKAPKLLIYSASSLYSGVPSRFSGSRSGTDFTLTISSLQPEDFATYYCQQYVYPPFTFGQGTKVEIKR
Reply: 5.62
